Entries and their measured melting point follow.

Example compounds with recorded melting point:
INSERT INTO measurements (compound, meas_value) VALUES
  ('Cc1ccc2c(c1)C(C(=O)Nc1c(Cl)cccc1Cl)c1ccccc1CO2 (stereo not given)', '156 to 157 °C'),
  ('CS(=O)(=O)c1ncc2cc(-c3ccccc3Cl)c(O)nc2n1', '215 to 221 °C'),
  ('COCN1C(=O)C(=C/c2ccccc2)/C(=C\c2cc(OC)c(OC)c(OC)c2)C1=O', '127 to 128 °C'),
  ('C1=C(c2cccc3[nH]ccc23)CN(CCc2ccccc2)CC1', '205 °C'),
  ('CC(C)=C1OC(=O)N(c2cc(OC3CCCC3)c(Cl)cc2F)C1=N', '131 to 133 °C');

Lookup result for Cn1c(=S)n(C)c(=O)n(-c2c(F)cc(Cl)c3ncoc23)c1=O ; measured melting point: 209 to 211 °C

Lookup result for COc1ccccc1N1CCN(CCN(CCCN2CC=C(c3c[nH]c4cc(F)ccc34)CC2)C(C)=O)CC1 ; measured melting point: 75 to 77 °C

Lookup result for O=C(CN1CCCCC1)Nc1ccc2cc3ccc(NC(=O)CN4CCCCC4)cc3nc2c1 ; measured melting point: 192 to 194 °C

Lookup result for CC1=NC=CC(=O)C1OCc1ccccc1 (stereo not given) ; measured melting point: 162 to 163 °C

Lookup result for CCP(=O)(O)CCCN ; measured melting point: 233 to 239 °C
